Record form. Attribute: glycan array binding signal (z-score). Fill in for each entry.
assayed target: Gal(a1-4)GlcNAc
run description: glycan array binding signal (z-score within array); higher = stronger binding
applied conditions: glycan notation: IUPAC condensed, linker removed
This is one part of a sample in which the strongest signals are shown more often than they occur.
Write no unit; give the number alone.

Documented glycan array binding signal (z-score) of Mnn9-2N3 (Aspergillus fumigatus) (protein) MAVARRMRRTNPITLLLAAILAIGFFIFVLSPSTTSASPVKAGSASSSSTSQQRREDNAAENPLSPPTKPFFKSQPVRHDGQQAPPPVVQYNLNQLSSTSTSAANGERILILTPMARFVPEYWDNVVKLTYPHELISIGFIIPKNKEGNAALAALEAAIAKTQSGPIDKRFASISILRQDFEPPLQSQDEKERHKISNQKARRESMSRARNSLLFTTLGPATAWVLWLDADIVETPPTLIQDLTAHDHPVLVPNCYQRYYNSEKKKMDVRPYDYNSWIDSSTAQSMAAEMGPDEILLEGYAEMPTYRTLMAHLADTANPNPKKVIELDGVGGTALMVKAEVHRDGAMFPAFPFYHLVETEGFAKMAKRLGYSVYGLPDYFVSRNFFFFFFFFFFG : 2.75

Documented glycan array binding signal (z-score) of Epa2 (Candida glabrata) (protein) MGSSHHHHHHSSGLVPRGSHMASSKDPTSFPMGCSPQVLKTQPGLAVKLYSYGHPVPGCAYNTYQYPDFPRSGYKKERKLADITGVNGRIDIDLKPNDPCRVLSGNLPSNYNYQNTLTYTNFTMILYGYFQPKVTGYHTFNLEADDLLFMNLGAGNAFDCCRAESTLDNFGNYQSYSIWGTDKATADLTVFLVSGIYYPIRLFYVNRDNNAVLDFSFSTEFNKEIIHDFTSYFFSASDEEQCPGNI : 2.5

Documented glycan array binding signal (z-score) of Epa22 (Candida glabrata) (protein) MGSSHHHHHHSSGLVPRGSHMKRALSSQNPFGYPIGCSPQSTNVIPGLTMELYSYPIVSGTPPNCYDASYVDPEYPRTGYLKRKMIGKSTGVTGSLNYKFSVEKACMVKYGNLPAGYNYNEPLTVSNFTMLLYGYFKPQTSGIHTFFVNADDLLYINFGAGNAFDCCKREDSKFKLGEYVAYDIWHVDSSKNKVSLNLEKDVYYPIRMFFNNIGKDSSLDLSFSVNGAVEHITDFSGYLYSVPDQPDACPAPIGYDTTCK : 5.91

Documented glycan array binding signal (z-score) of Epa12 (Candida glabrata) (protein) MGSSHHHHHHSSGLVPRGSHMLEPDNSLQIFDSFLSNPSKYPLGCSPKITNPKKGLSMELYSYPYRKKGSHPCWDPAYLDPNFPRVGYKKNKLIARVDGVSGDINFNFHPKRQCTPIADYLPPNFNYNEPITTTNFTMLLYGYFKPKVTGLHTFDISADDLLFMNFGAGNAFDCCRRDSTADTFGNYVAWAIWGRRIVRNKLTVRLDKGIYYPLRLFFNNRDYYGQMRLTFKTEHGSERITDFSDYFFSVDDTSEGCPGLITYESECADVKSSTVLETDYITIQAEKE : 5.7
